- System: CP262
- assay: qHTS profiling for inhibitors of Plasmodium falciparum proliferation (AID 504749); also: nearly all actives have a fitted effect of over 60% in size
- measurement_conditions: P. falciparum in erythrocytes, SYBR Green DNA, 72 h; series mostly up to 28.7 µM
Inconclusive results are not listed. Activity calls are given as the source filed them. Calls follow the shape of the dose curve; as a rule, active = well fitted inhibition curve with a large enough effect; inconclusive = small, poorly fitted or top-dose-only effect; inactive = flat fitted curve, though single readings scatter.
Tick one outcome: Y for active, N for inactive

Q. Lab log entry: C[C@@H]1CCC2[C@@H](C)[C@@H](O)O[C@@H]3O[C@@]4(C)CC[C@@H]1[C@@]23OO4 (stereo not given in full) — outcome as called in the assay?
A. Y

Q. Lab log entry: CCCCC(C)(O)C/C=C/[C@H]1[C@H](O)CC(=O)[C@@H]1CCCCCCC(=O)OC (stereo not given in full) — outcome as called in the assay?
A. N

Q. Lab log entry: `Cc1ccccc1` — outcome as called in the assay?
A. N

Q. Lab log entry: `C[C@H]1C[C@H]2[C@@H]3CCC4=CC(=O)C=C[C@]4(C)[C@@]3(F)[C@@H](O)C[C@]2(C)[C@@]1(O)C(=O)CO` — outcome as called in the assay?
A. N

Q. Lab log entry: `COc1ccc2c3c1O[C@H]1C[C@@H](O)C=C[C@@]31CCN(C)C2` — outcome as called in the assay?
A. N

----------
- Tested on: CP297
- assay: qHTS profiling for inhibitors of Plasmodium falciparum proliferation (AID 504749); also: nearly all actives have a fitted effect of over 60% in size
- measurement_conditions: P. falciparum in erythrocytes, SYBR Green DNA, 72 h; series mostly up to 28.7 µM
Results filed as inconclusive are left out. The source made the active and inactive calls. The call rests on the fitted dose curve; in most records, active means well fitted inhibition curve with a large enough effect; inconclusive means small, poorly fitted or top-dose-only effect; inactive means flat fitted curve, though single readings scatter.
Tick one outcome: active, inactive

Q. Lab log entry: `O=C(O)c1cc(=O)c2c3nc4ccccc4oc-3cc(=O)c2[nH]1` — outcome as called in the assay?
A. inactive

Q. Lab log entry: `O=S(=O)(O)c1ccc2c(N=Nc3ccc(S(=O)(=O)O)c4ccccc34)c(O)c(S(=O)(=O)O)cc2c1` — outcome as called in the assay?
A. inactive

Q. Lab log entry: `CCOC(C)=O` — outcome as called in the assay?
A. inactive

Q. Lab log entry: `CCCC(=O)O[C@]1(C(=O)CCl)[C@H](C)C[C@@H]2[C@H]3CCC4=CC(=O)C=C[C@]4(C)[C@@]3(F)C(=O)C[C@@]21C` — outcome as called in the assay?
A. active

Q. Lab log entry: `COCC(=O)Nc1cc(Sc2ccccc2)ccc1N=C(NC(=O)OC)NC(=O)OC` — outcome as called in the assay?
A. inactive

Q. Lab log entry: CC1=CCC(C(C)(C)O)CC1 (centres undefined) — outcome as called in the assay?
A. inactive

Q. Lab log entry: `Cc1cc(C(=O)NNCc2ccccc2)no1` — outcome as called in the assay?
A. inactive

Q. Lab log entry: `CC1=C(/C=C/C(C)=C/C=C/C(C)=C/C=C/C=C(C)/C=C/C=C(C)/C=C/C2=C(C)C(=O)CCC2(C)C)C(C)(C)CCC1=O` — outcome as called in the assay?
A. inactive

Q. Lab log entry: CCCCC(CC)COC(=O)CC(C(=O)OCC(CC)CCCC)S(=O)(=O)O (centres undefined) — outcome as called in the assay?
A. inactive

Q. Lab log entry: CN1C(=O)CN2CCc3ccccc3C2c2cc(Cl)ccc21 (centres undefined) — outcome as called in the assay?
A. inactive

Q. Lab log entry: C[C@@H]1CCC2[C@@H](C)[C@@H](O)O[C@@H]3O[C@@]4(C)CC[C@@H]1[C@@]23OO4 (some centres undefined) — outcome as called in the assay?
A. active

Q. Lab log entry: `CCNC(=O)[C@@H]1CCCN1C(=O)[C@H](CCCN=C(N)N)NC(=O)[C@H](CC(C)C)NC(=O)[C@@H](Cc1c[nH]c2ccccc12)NC(=O)[C@H](Cc1ccc(O)cc1)NC(=O)[C@H](CO)NC(=O)[C@H](Cc1c[nH]c2ccccc12)NC(=O)[C@H](Cc1cnc[nH]1)NC(=O)[C@@H]1CCC(=O)N1` — outcome as called in the assay?
A. active

Q. Lab log entry: CC(O)CO (centres undefined) — outcome as called in the assay?
A. inactive

Q. Lab log entry: `IC(I)I` — outcome as called in the assay?
A. inactive

Q. Lab log entry: `CCCCC(=O)O[C@]1(C(=O)CO)[C@H](C)C[C@H]2[C@@H]3CCC4=CC(=O)C=C[C@]4(C)[C@@]3(F)[C@@H](O)C[C@@]21C` — outcome as called in the assay?
A. inactive

Q. Lab log entry: `O=C(O)CCC(=O)C(=O)O` — outcome as called in the assay?
A. inactive

Q. Lab log entry: `C#C[C@]1(O)CC[C@H]2[C@@H]3CCC4=CCCC[C@@H]4[C@H]3C(=C)C[C@@]21CC` — outcome as called in the assay?
A. inactive

Q. Lab log entry: CCCCC(C)(O)C/C=C/[C@H]1[C@H](O)CC(=O)[C@@H]1CCCCCCC(=O)OC (some centres undefined) — outcome as called in the assay?
A. inactive

Q. Lab log entry: `C=C1C(=CC=C2CCC[C@@]3(C)[C@@H]2CC[C@H]3[C@H](C)CCCC(C)C)C[C@@H](O)C[C@@H]1O` — outcome as called in the assay?
A. inactive
